experiment: Ascending multiple dose pharmacokinetics of enteric coated capsules in healthy subjects; format: in vivo, human; conditions: human, plasma, po, 100 mg, healthy subjects, single oral dose 100 mg, day 1; read-out: t1/2 (Mean) (converted)
propertyMeasured: half-life (h)

[[record]]
molecule = "Cl.c1cc2c3c(c1)[C@H]1CCC[C@H]1CN3CCNC2 [Compound A.HCl]"
measuredvalue = 9.9


----------
assay: Ascending multiple dose pharmacokinetics of enteric coated capsules in healthy subjects; format: in vivo, human; settings: human, plasma, po, 150 mg, healthy subjects, single oral dose 150 mg, day 1; read-out: t1/2 (Geom. Mean) (converted)
propertyMeasured: half-life (h)

[[record]]
molecule = "Cl.c1cc2c3c(c1)[C@H]1CCC[C@H]1CN3CCNC2 [Compound A.HCl]"
measuredvalue = 9


----------
assay: Ascending multiple dose pharmacokinetics of enteric coated capsules in healthy subjects; type: in vivo, human; settings: human, plasma, po, 150 mg, healthy subjects, single oral dose 150 mg, day 1; read-out: AUC0-∞ (Mean)
propertyMeasured: AUC(0-inf) (ng·h/mL)

[[record]]
molecule = "Cl.c1cc2c3c(c1)[C@H]1CCC[C@H]1CN3CCNC2 [Compound A.HCl]"
measuredvalue = 70.2


----------
assay: Ascending multiple dose pharmacokinetics of enteric coated capsules in healthy subjects; type: in vivo, human; details: human, plasma, po, 50 mg, healthy subjects, single oral dose 50 mg, day 1; read-out: AUC0-∞ (Mean)
propertyMeasured: AUC(0-inf)

[[record]]
compound = "Cl.c1cc2c3c(c1)[C@H]1CCC[C@H]1CN3CCNC2 [Compound A.HCl]"
measuredvalue = "23.5 ng·h/mL"


----------
experiment: Ascending multiple dose pharmacokinetics of enteric coated capsules in schizophrenic patients; format: in vivo, human; conditions: human, plasma, po, 250 mg, Schizophrenia patients, single oral dose 250 mg, day 1; read-out: t1/2 (Mean) (converted)
propertyMeasured: half-life (h)

[[record]]
molecule = "Cl.c1cc2c3c(c1)[C@H]1CCC[C@H]1CN3CCNC2 [Compound A.HCl]"
propertymeasured = "half-life"
measuredvalue = 8.04


----------
experiment: Ascending multiple dose pharmacokinetics of enteric coated capsules in healthy subjects; assay type: in vivo, human; conditions: human, plasma, po, 100 mg, healthy subjects, multiple oral doses (q12 h) 100 mg, day 14; read-out: Tmax (Geom. Mean)
propertyMeasured: Tmax (h)

[[record]]
compound = "Cl.c1cc2c3c(c1)[C@H]1CCC[C@H]1CN3CCNC2 [Compound A.HCl]"
measuredvalue = 5.3


----------
assay: Ascending multiple dose pharmacokinetics of enteric coated capsules in healthy subjects; format: in vivo, human; details: human, plasma, po, 50 mg, healthy subjects, single oral dose 50 mg, day 1; read-out: t1/2 (Geom. Mean) (converted)
propertyMeasured: half-life

[[record]]
molecule = "Cl.c1cc2c3c(c1)[C@H]1CCC[C@H]1CN3CCNC2 [Compound A.HCl]"
measuredvalue = "9.69 h"


----------
assay: Ascending multiple dose pharmacokinetics of enteric coated capsules in healthy subjects; type: in vivo, human; details: human, plasma, po, 150 mg, healthy subjects, multiple oral doses (q12 h) 150 mg, day 14; read-out: Tmax (Mean)
propertyMeasured: Tmax

[[record]]
molecule = "Cl.c1cc2c3c(c1)[C@H]1CCC[C@H]1CN3CCNC2 [Compound A.HCl]"
measuredvalue = "5.2 h"


----------
assay: Ascending multiple dose pharmacokinetics of enteric coated capsules in healthy subjects; format: in vivo, human; conditions: human, plasma, po, 75 mg, healthy subjects, multiple oral doses (q12 h) 75 mg, day 14; read-out: Tmax (Mean)
propertyMeasured: Tmax (h)

[[record]]
compound = "Cl.c1cc2c3c(c1)[C@H]1CCC[C@H]1CN3CCNC2 [Compound A.HCl]"
unitofmeasure = "h"
measuredvalue = 6.3

